- Test system: MS2 coat protein
- protocol.text: apparent KD of MS2 coat protein; designed switch direction (-1 OFF switch, 1 ON switch): -1; higher = weaker reporter binding
- setup.conditions: input ligand: FMN 200 uM
measurement.kind: apparent KD of MS2 coat protein (nM)
Field: numeric (nM). Do not append units.

[ask] Which value of apparent KD of MS2 coat protein has been reported for AAAUCGGUAGAGGAUAUUGUACAGGAAACGGUGCAAGAAGGUUGCACAUGAGGAUCACCCAUGUUAAAUUGCGA [EX6 #51] (Eterna round: R97, puzzle: Exclusion 6) in the records?
[reply] 39.4

[ask] How about CCUCUGUUAGGAUAUGGCAAAGAUGAGACACACCGACAUUGUUAGAAGGGACAUGAGGAUCACCCAUGUCAGCG [Eternabot (L1) Solution 57] (Eterna round: R97, puzzle: Exclusion 4) ?
[reply] 22.8

[ask] Try this sequence too: GUAGAUCGAGUUAGGAUAUGAUUACUAUCCGAAAAUCAGAAGGAACUUGAGGAUCACCCAAGUAUAGAUGAUAU [JR_BMEx4_Sub053] (Eterna round: R97, puzzle: Brourd's mod of Exclusion 4)
[reply] 21.7

[ask] Now try UUGGUUGUGGUAGGAUAUCCGUUGGAAACCUUCGGAGAAGGACCACAGUCACUGGGUCUUUGUCUGGUGGACGGUUUCGACCGU [pwkr exNG1 F6.23] (Eterna round: R96, puzzle: Exclusion NG 1) .
[reply] 202

[ask] Now try ACAUGAGGAUCACCCAUGUAAGGUUGGUUUUCUCCGGCUGUUGAGGAUAUAGUCCGGUAUCCGCGCUAGAAGGUGAGGGUUGGC [Aenatbe mod 10] (Eterna round: R96, puzzle: Exclusion NG 3) .
[reply] 73

[ask] Do the same for UACCCUAAGGUGAGGAUAUCUAGGCCUAGAGGUCAAGAGAAGGCACAUGAGGAUCACCCAUGUAGUUGAUACGA [BmEX4 B.25] (Eterna round: R97, puzzle: Brourd's mod of Exclusion 4) please
[reply] 77.4

[ask] Next up: AUGUGACAUGAGGAUCACCCAUGUGAGGAUAUCAUGCUUCGUAGUAAACUACGAAGUGUGAGAAGGCACAUAAC [Omei Ex1 E7] (Eterna round: R97, puzzle: Exclusion 1)
[reply] 357

[ask] And then CCGCCGCAAGGAUAUACUUGCGGUGAUGUUCGAGUUCUUCUACUUGAGGAUCACCCAAGUAGAAGGUGCAAAAC [jl-ex2.4.59 ViennaUCT mod] (Eterna round: R97, puzzle: Exclusion 2) , what is it?
[reply] 13

[ask] // query: GGGUGCAGGCUGAGGUCCUACAUGAGGAUCACCCAUGUGGUCCGGUGACGUGAGUCGCCGGACUUGGCUCGUCUUGU [salish99_S_TOV1_R5_011] (Eterna round: R97, puzzle: Sensor, turn-off variant 1)
[reply] 42.2

[ask] Another sequence to look at: GUGGGUUACAUGAGGAUCACCCAUGUAUAGUGGGAAGAGAUAUAGGAUAUAAUGUAAAAAUUAUAUUAGAAGGAUAGAGACUAG [AK ExNG3-1.3] (Eterna round: R96, puzzle: Exclusion NG 3)
[reply] 344

[ask] Note, next up: UACGUGUCAGGAUAUGCGUUGGUACAGAAGUAUGGCCAACGGCAGAAGGGACAUGAGGAUCACCCAUGUCGUCG [Eternabot (L1) Solution 60] (Eterna round: R97, puzzle: Exclusion 4)
[reply] 139

[ask] Query AGUUGUGUCAAGGAUAUGCAGUCUAACGACGGAGCAGAAGGUGACACUUGAGGAUCACCCAAGUGAACCAAAAU [Bisoreis] (Eterna round: R97, puzzle: Exclusion 6) next
[reply] 393

[ask] Can you check CAGCCUCUUGUGAGGAUAUUCUGCUAAGCGAGGCGGAAGAAGGUACAUGAGGAUCACCCAUGUUGGCGGAAUAA [Eternabot (Original) Solution 21] (Eterna round: R97, puzzle: Brourd's mod of Exclusion 4) next?
[reply] 167

[ask] Ok, now UUGUUGUGUGUAGGAUAUGCAUGUUAUUAUUAUGCAGAAGGACAUGAGGAUCACCCAUGUGUAUUAUUAUUAUAUAUUAUAUAU [Title] (Eterna round: R96, puzzle: Exclusion NG 1)
[reply] 21.1

[ask] Further, for CCACUGUCAGGAUAUCGUGCAUAACGUUUACAUUAUAUGUGCGAGAAGGGACAUGAGGAUCACCCAUGUAAACG [Omei Ex4 A28PK1] (Eterna round: R97, puzzle: Exclusion 4) ?
[reply] 604

[ask] Same again, this time with CUCGCUGUAGGAUAUACAUAUGUCCUGUCAGCCGCGGCAGAACAUGAGGAUCACCCAUGUAGAAGGAUAGAGAG [Eternabot (Original) Solution 34] (Eterna round: R97, puzzle: Exclusion 2)
[reply] 48.3

[ask] Queued: AGAUAACAUGAGGAUCACCCAUGUCAGGAUAUCGACUGAACAGCUUCGGCUGUUCAGUCGAGAAGGGACAAUUA [Brourdxlusion 9 - Jieux - Exclusion 1] (Eterna round: R97, puzzle: Exclusion 1)
[reply] 84.1

[ask] # repeat for AAGACACAUGAGGAUCACCCAUGUGAGGAUAUUUGAUGCUGAGCGUAAGCUUAGUAUCAGAGAAGGUACAUAGG [Salishxclusion 10 - Jieux - Exclusion 1] (Eterna round: R97, puzzle: Exclusion 1)
[reply] 105

Numbers sourced from the supplement of paper PMC9170038.
